Target: σ1 receptor and μ-opioid receptor
Assay: Human σ1 receptor and human μ-opioid receptor radioligand assays (dual binding scale)
Details: joint class for both Ki; σ1: [3H](+)-pentazocine, transfected HEK-293 membranes; μ: [3H]-DAMGO, transfected CHO-K1 cell membranes
readout: Ki

Example entries and their recorded answers appear below.
INSERT INTO measurements (molecule, readout, recorded_measurement) VALUES
  ('CCC1(c2cccc(O)c2)CCCCN(CC(=O)N2CCOCC2)C1 (centres unmarked)', 'Ki', '≥ 0.5 µM'),
  ('CCOCCN1CCCCC(CC)(c2cccc(NS(C)(=O)=O)c2)C1 (centres unmarked)', 'Ki', '≥ 0.5 µM'),
  ('CCC1(c2cccc(O)c2)CCCCN(CCOC(C)C)C1 (centres unmarked)', 'Ki', '< 0.5 µM'),
  ('CCC1(c2cccc(O)c2)CCCCN(CCN2CCCCC2)C1 (centres unmarked)', 'Ki', '< 0.5 µM'),
  ('CCOCCN1CCCCC(CC)(c2cccc(NS(=O)(=O)C(C)C)c2)C1 (centres unmarked)', 'Ki', '≥ 0.5 µM'),
  ('CCC1(c2cccc(OC)c2)CCCCN(CCN2CCN(C)CC2)C1 (centres unmarked)', 'Ki', '≥ 0.5 µM'),
  ('CCOCCN1CCCCC(CC)(c2cccc(OC)c2)C1 (centres unmarked)', 'Ki', '≥ 0.5 µM'),
  ('CCC1(c2cccc(OC)c2)CCCCN(CCN2CCOCC2)C1 (centres unmarked)', 'Ki', '≥ 0.5 µM'),
  ('CCOCCN1CCCCC(CC)(c2cccc(N)c2)C1 (centres unmarked)', 'Ki', '≥ 0.5 µM'),
  ('CCOCCN1CCCCC(CC)(c2cccc(O)c2)C1 (centres unmarked)', 'Ki', '< 0.1 µM');

Field: next molecule
So what's the measured Ki for this one? CCC1(c2cccc(OC)c2)CCCCN(CCN2CCCCC2)C1 (centres unmarked)
≥ 0.5 µM
